// Histamine H4 receptor (Homo sapiens, UniProt Q9H3N8) log10 Ki records
The base-10 logarithm of Ki, taken with Ki in nM, is what appears here.

Query (molecule): COc1nc2cc(Cl)c(Cl)cc2nc1N1CCN(C)CC1 ; field requested: log10 Ki
1.76

Query (molecule): CN1CCN(c2nc3ccccc3nc2Oc2ccc(Cl)c(Cl)c2)CC1 ; field requested: log10 Ki
3.23

Query (molecule): CN1CCN(c2ccc3cc(Cl)ccc3n2)CC1 ; field requested: log10 Ki
2.77

Query (molecule): CN1CCN(c2nc3ccccc3nc2OCc2cccnc2)CC1 ; field requested: log10 Ki
3.47

Query (molecule): CN1CCN(c2nc3ccccc3nc2Cl)CC1 ; field requested: log10 Ki
2.36

Query (molecule): COc1nc2ccccc2nc1N1CCN(C)CC1 ; field requested: log10 Ki
2.53

Query (molecule): CN1CCN(c2nc3ccccc3nc2Cc2ccccc2)CC1 ; field requested: log10 Ki
1.60

Query (molecule): CN1CCN(c2nc3ccccc3nc2-c2ccccc2)CC1 ; field requested: log10 Ki
4.01

Query (molecule): CN1CCN(c2cnc3cc(Cl)ccc3n2)CC1 ; field requested: log10 Ki
1.96

Query (molecule): CN1CCN(c2nc3ccccc3nc2C(F)(F)F)CC1 ; field requested: log10 Ki
3.40

Query (molecule): CN1CCN(c2nc3ccccc3[nH]c2=O)CC1 ; field requested: log10 Ki
1.79

Query (molecule): CC(C)COc1nc2ccccc2nc1N1CCN(C)CC1 ; field requested: log10 Ki
3.76

Query (molecule): CN1CCN(c2nc3ccccc3nc2Sc2ccccc2)CC1 ; field requested: log10 Ki
2.56

Query (molecule): CN1CCN(c2cnc3ccccc3n2)CC1 ; field requested: log10 Ki
2.95

Query (molecule): COc1nc2cc(Cl)ccc2nc1N1CCN(C)CC1 ; field requested: log10 Ki
1.42
